- target.of.assay: HLA-A*02:01
- assay.overview: IEDB peptide-MHC binding, purified MHC/competitive/fluorescence; bounds were set here for any values at or beyond the usual limits of such assays
- condition.parameters: source organism: Sudan ebolavirus
attribute.measured: IC50 (µM)
Report only the number, with the unit µM understood.

Some entries whose results are on file:
    seq_text  measured
0  GTNGNHMQI      62.9
1  RILGPDCCI        64

We now examine a further sequence.
Summary for this sequence, NLEGSGVST : IC50 is 67.6

* * *

- target.of.assay: HLA-A*01:01
- assay.overview: IEDB peptide-MHC binding, purified MHC/competitive/radioactivity; filed as Kd, often an IC50 or EC50 that approximates it; bounds were set here for any values at or beyond the usual limits of such assays
- condition.parameters: source organism: Hepacivirus hominis
attribute.measured: Kd

Form field Kd, entry HSKKKCDDL : ≥ 53.9 µM

* * *

- target.of.assay: HLA-B*44:02
- assay.overview: IEDB peptide-MHC binding, purified MHC/direct/fluorescence; filed as Kd, often an IC50 or EC50 that approximates it; bounds were set here for any values at or beyond the usual limits of such assays
- condition.parameters: source organism: Vibrio cholerae
pKd: −log10 of the molar value.
Reported values of pKd for individual entries

// below: answered sequences
    seq_text  attribute_measured  measured
0  GEHWLGRIW                 pKd      5.42
1  AEIDRSFKP                 pKd    ≤ 4.70

Read the next record carefully.
Entry VLKLRFWLI ; pKd = ≤ 4.70

* * *

- target.of.assay: HLA-A*69:01
- assay.overview: IEDB peptide-MHC binding, purified MHC/direct/fluorescence; filed as Kd, often an IC50 or EC50 that approximates it; bounds were set here for any values at or beyond the usual limits of such assays
- condition.parameters: source organism: Aromatoleum aromaticum
pKd: −log10 of the molar value.
attribute.measured: pKd

Measured pKd, VLEGFEGDL : ≤ 4.70

* * *

- target.of.assay: HLA-A*26:01
- assay.overview: IEDB peptide-MHC binding, purified MHC/competitive/radioactivity; filed as Kd, often an IC50 or EC50 that approximates it; bounds were set here for any values at or beyond the usual limits of such assays
- condition.parameters: source organism: Dengue virus 2 Peru/IQT2913/1996
attribute.measured: Kd

Considering DVIPMVTQM , its Kd with HLA-A*26:01 was recorded as 0.0642 µM

* * *

- target.of.assay: HLA-B*44:02
- assay.overview: IEDB peptide-MHC binding, purified MHC/competitive/radioactivity; filed as Kd, often an IC50 or EC50 that approximates it; bounds were set here for any values at or beyond the usual limits of such assays
- condition.parameters: source organism: Dengue virus 4 Philippines/H241/1956
attribute.measured: Kd (nM)
Numbers only here, please. The scale is nM.

>>> print(df.to_string())
     seq_text  attribute_measured  measured
0  IEKTKTDFGF                  Kd      1730

// switching to the query sequence
Value of measured Kd for the entry EEHKETWHY : 203

* * *

- target.of.assay: HLA-A*32:01
- assay.overview: IEDB peptide-MHC binding, purified MHC/competitive/radioactivity; filed as Kd, often an IC50 or EC50 that approximates it; bounds were set here for any values at or beyond the usual limits of such assays
- condition.parameters: source organism: Vaccinia virus WR
Mark T for Kd under 20 nM, F if at or over.

Reference set (3 entries):
In [3]: df
Out[3]:
    seq_text  target_of_assay  answer_label
0  TTQTSALSI      HLA-A*32:01             F
1  NLLCHIYSL      HLA-A*32:01             F
2  RTFNRTHYW      HLA-A*32:01             T

Input line: Does this sequence meet the criterion Kd < 20 nM? KTSSFKISK
Output line: F

Input line: Threshold test, Kd < 20 nM: NVAYGAVSF
Output line: F

Input line: Please indicate whether the reported Kd of WQFAIHYSF is strictly below 20 nM.
Output line: T

Input line: Identify whether the sequence ISLFYTFAI records Kd below 20 nM.
Output line: T

Input line: # TODO verify Kd < 20 nM strictly for this sequence: ITLVVISVI
Output line: F

Input line: Below 20 nM on Kd? Entry LTGTFVTAF
Output line: T
